In this section we review reported kon values for a set of binders.
Target: T1, human transferrin receptor 1 (human, UniProt P02786 89-760, limits assumed)
T1 construct: also called hTfR1; huTfR1
T1 sequence (P02786 89-760 limits assumed): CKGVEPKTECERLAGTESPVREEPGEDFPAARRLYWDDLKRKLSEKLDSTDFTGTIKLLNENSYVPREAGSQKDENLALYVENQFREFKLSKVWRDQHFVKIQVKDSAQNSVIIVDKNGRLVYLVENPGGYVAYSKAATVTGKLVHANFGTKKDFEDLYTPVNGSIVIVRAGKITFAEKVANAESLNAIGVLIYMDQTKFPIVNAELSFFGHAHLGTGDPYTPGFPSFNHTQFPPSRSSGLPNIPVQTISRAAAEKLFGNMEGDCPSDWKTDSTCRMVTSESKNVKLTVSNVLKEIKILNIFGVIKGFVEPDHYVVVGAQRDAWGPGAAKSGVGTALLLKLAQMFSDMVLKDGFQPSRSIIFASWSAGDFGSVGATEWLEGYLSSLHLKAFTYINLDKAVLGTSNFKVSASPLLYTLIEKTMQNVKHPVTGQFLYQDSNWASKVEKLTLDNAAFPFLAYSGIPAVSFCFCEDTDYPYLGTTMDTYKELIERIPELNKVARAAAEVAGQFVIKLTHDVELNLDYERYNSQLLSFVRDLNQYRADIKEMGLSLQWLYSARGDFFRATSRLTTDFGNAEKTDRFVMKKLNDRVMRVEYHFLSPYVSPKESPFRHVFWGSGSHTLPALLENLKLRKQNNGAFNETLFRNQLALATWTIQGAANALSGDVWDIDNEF
Test: Carterra LSA SPR array, IgG captured on anti-IgG lawn, hTfR1 as analyte, 25 C, 1:1 Langmuir fit
Kindly provide the numeric value in M⁻¹ s⁻¹ only, without the unit symbol.

Use the examples below as a reference point.
binder: 8-K6 (antibody, V domains shown, Tested as a mouse monoclonal IgG; also called 8-K06) VH: QVHLQQPGAELVKPGASVKMSCKASGYTFTSYWITWVKQRPGQGLEWIGDIFPNSGRTNYDEKFKSKATLTVDTSSSTAYMQLSSLTSEDSAVYFCAREGNFGSLDYWGQGTTLTVSS VL: QIVLTQSPAIMSASPGEKVTMTCSANSNLNYMNWYHQKSGTSPKRWIYDTSKLASGVPARFSASGSGTSYSLTISSMEAEDAATYYCQQWSRNPLTFGAGTRLELK
dataValue: 144000
//
binder: 3-E5 (antibody, V domains shown, Tested as a mouse monoclonal IgG; also called 3-E05) VH: EIQMKQSGAELVKPGASVKISCKASGYSFTGYNMNWVKQSHGKSLEWIGNINPYYGSTGYNQKFKGKATLTVDKSSSTAYMQLNSLTSEDSAVYYCARGDYGYDEGTWFAYWGQGTLVTVSA VL: DIVMSQSPSSLAVSAGEKVTMSCKSSQSLLNSRTRKNYLAWYQQKPEQSPKLLIYWASTRESGVPDRFTGSGSGTDFTLTISSVQAEDLAVYYCKQSYNLPFTFGSGTKLEIK
dataValue: 22000
//
binder: 6-D3 (antibody, V domains shown, Tested as a mouse monoclonal IgG; also called 6-D03) VH: QVQLQQPGAELVKPGASVKMSCKASGYTFTRHWITWVKQRPGQGLEWIGDIYPGSGRTNYNEKFKSTATLTVDTSSSTAYMQLSSLTSEDSAVYYCARDGYLYINYFDYWGQGTTLTVSS VL: ENVLTQSPAIMSASPGEKVTMTCSASSSVSFMHWFQQKSSTSPKLWIYDTSKLASGVPGRFSGSGSGSSYSLTISSMAAEDVATYYCFQGSGYPYTFGGGTKLEIK
dataValue: 108000
//
binder: 2-H19 (antibody, V domains shown, Tested as a mouse monoclonal IgG) VH: EVQLQQSGAELVRSGASVKLSCTASGFNIKDYYMHWVKQRPEQGLEWIGWIDPESGDTEYAPKFQGRATMTADTSSNTAYMQLSSLTSEDTAVYYCYGHDYRVDCWGQGTSVTVSS VL: DVVMTQTPLSLPVSLGDQASISCRSSQSLVHSNGNTYLHWYLQKPGQSPKLLIYKVSNRFSGVPDRFSGSGSGTDFTLKISRVEAEDLGVYFCSQSTHIPWTFGGGTKLEIK
dataValue: 222000

--- query ---
Inquiry: For the binder 5-H12 (antibody, V domains shown, Tested as a mouse monoclonal IgG) VH: QIQLQQSGPELVRPGASVKISCKASGYSFTDYCINWVNQRPGQGLEWIGWIYPGSGNTRYSERFKGKATLTVDTSSNTAYMQLSSLTSEDSAVYFCAREDYYPYHGMDYWGQGTSVTVSS VL: DIVLTQSPTSLAVSLGQRATISCRASESVDGYDNSFMHWYQQKPGQPPKLLIFRASNLESGIPARFSGSGSRTDFTLTINPVEAADVATYYCQQSSEDPWTFGGGTKLEIK , give its measured kon value.
Reply text: 66700
